Answer each item with its documented interaction score.
Biological target: T1, O9
T1 chain: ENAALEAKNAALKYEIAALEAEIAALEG
Assay: two-hybrid library CC0;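 note: natural log of median RNA to DNA barcode read ratio; higher means stronger binding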
Conditions: mean of both orientations
Numbers only.

Illustrative cases are given below, each with its answer.
- binder: "KIAALKAEIAALEYKNAALKAKNAALKG [O4]"
  interaction score: -2.71
- binder: "EIAALEAENAALEYEIAALEAKNAALKG [O8]"
  interaction score: -2.53
- binder: "EIAALEAENAALEYKIAALKAENAALEG [O15]"
  interaction score: -2.72

Next item in the queue.
Ask: # lookup: interaction score of ENAALEAKNAALKYKIAALKAKIAALKG [O2]
Reply: -1.04
